target: UniProt P47989; assay: Fluorescence-based xanthine oxidase inhibition assay; type: biochemical
pIC50: −log10 of the molar value.
Parameter pIC50: see the listing below.

O=C(Nc1ccc(F)cc1)c1c(O)[nH]c(=S)[nH]c1=O [Formula (Ib)]    > 5.00

O=C(Nc1cc(F)c(O)c(F)c1)c1c(O)[nH]c(=O)[nH]c1=O [Formula (Ig)] has a reported pIC50 of > 5.00

The molecule identified as O=C(Nc1ccc(O)cc1F)c1c(O)[nH]c(=S)[nH]c1=O [Formula (Ic)] registered its pIC50 at > 5.00

---

biological target: xanthine oxidase (Homo sapiens (Human), UniProt P47989); assay: Fluorescence-based xanthine oxidase inhibition assay; format: biochemical; settings: triplicate, 10 concentrations; read-out: Xanthine Oxidase IC50
Sequence (P47989 whole entry, species assumed): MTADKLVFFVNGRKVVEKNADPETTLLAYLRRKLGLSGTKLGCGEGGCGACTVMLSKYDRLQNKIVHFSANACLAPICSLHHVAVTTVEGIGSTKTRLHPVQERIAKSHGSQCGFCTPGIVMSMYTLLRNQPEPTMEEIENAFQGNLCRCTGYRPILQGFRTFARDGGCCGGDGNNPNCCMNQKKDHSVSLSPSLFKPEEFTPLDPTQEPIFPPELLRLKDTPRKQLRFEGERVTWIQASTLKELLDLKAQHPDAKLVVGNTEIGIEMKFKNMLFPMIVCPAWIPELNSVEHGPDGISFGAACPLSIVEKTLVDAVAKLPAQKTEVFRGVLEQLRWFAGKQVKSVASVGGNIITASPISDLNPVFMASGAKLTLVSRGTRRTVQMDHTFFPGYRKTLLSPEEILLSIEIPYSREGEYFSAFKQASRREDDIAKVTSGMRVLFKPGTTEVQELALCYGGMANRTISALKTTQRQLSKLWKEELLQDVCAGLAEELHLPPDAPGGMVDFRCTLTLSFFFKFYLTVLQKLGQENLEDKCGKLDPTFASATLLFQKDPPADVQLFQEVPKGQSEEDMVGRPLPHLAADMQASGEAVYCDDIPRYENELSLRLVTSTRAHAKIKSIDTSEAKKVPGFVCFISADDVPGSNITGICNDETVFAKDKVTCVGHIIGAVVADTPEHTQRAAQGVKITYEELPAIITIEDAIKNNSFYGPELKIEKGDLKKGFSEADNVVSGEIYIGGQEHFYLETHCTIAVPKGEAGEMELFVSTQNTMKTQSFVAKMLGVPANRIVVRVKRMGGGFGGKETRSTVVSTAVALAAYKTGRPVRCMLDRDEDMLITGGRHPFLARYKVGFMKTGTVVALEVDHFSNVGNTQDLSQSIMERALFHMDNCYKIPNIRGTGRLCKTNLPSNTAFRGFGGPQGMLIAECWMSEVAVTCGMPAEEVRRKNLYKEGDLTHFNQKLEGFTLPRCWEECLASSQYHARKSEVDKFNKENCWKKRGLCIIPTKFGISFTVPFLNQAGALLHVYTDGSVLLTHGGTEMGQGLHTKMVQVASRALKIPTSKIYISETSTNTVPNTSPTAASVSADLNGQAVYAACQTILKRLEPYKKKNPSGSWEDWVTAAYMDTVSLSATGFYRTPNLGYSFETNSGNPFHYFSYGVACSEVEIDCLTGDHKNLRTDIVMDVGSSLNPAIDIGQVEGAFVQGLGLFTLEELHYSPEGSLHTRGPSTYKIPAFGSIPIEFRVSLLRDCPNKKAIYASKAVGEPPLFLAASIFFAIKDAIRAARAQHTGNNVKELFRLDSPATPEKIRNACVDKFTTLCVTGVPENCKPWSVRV
measuredAttribute: pIC50
Just so you know, pIC50 here is -log10 of the concentration in molar units; reply with that number alone.

O=C(Nc1cc(F)c(O)c(F)c1)c1c(O)[nH]c(=O)[nH]c1=O    5.72

// field: pIC50; key: O=C(Nc1ccc(O)cc1F)c1c(O)[nH]c(=S)[nH]c1=O ; value = 5.25

The recorded pIC50 for entry O=C(Nc1ccc(O)cc1F)c1c(O)[nH]c(=O)[nH]c1=O equals 5.22

Kindly note the recorded pIC50 for O=C(Nc1ccncc1)c1c(O)[nH]c(=O)[nH]c1=O , which is 4.85
